Procedure Summary: 384-well plate pilot, post-Golgi transport modulator project, inhibition of yeast transport mutant growth (AID 636); also: test concentration not given here
Condition Set: absorbance 615 nm, about 18 h, stronger effect = higher value
Recorded inhibition for the following molecules
Record the value in %, omitting the unit from your answer.

These recorded examples may help you get a feel for the data.
>>> value_measured("COc1ccc(C(=O)CSc2nc(C)cc(=O)[nH]2)cc1")
-3.2
>>> value_measured("CCOC(=O)c1c(NC(=O)Cn2c(=O)oc3ccccc32)oc(C)c1C(C)=O")
-1.23
>>> value_measured("CCOC(=O)c1cccc(NC(=O)CSc2nnc(-c3cccnc3)n2C)c1")
-3.38
>>> value_measured("O=C(N1CCN(c2ccccc2F)CC1)C12CC3CC(CC(C3)C1)C2")
-5.6
>>> value_measured("C/C(=C\\C(=O)O)CC(=O)O")
-7.5
>>> value_measured("CC(=O)Nc1ccc(NC(=O)c2ccccc2N(C)S(C)(=O)=O)cc1")
-6.71
>>> value_measured("CCOC(=O)Cc1csc(NC(=O)CSc2nnc(-c3ccncc3)n2Cc2ccco2)n1")
-5.14
>>> value_measured("CCn1c(CSc2nnc(-c3cccnc3)n2-c2ccccc2C)nc2cc(C(=O)O)ccc21")
-3.56
>>> value_measured("CS(=O)(=O)N1CCc2cc(S(=O)(=O)Nc3ccc4oc5c(c4c3)CCCC5)ccc21")
-2.47

Kindly review the next molecule as well.
Query: Can you share its inhibition? I mean this molecule: COc1ccc(-c2nnc(SCC(=O)Nc3sc4c(c3C#N)CCC4)n2CC2CCCO2)cc1 (stereo not given)
Response: 2.43
